- System: batrachotoxin (BTX) binding site (binding site 2) of the sodium channel
- Method: Bond test on the sodium channel, binding site 2 (BTX bond), [3H]-batrachotoxinin A20 α-benzoate displacement
- Measurement Setup: rat cerebrocortex synaptosomes
We use 60% as the dividing line for BTX bond, 10 μM, % inhibition: on or above the line is 1.0, below is 0.0.

1) O=C(NCc1ccccc1)C1=NOC2(CCN(C(=O)COCc3ccccc3)CC2)C1 [Example 171] ... 0.0
2) C=C(C)CN(CC)C(=O)C1=NOC2(CCN(S(=O)(=O)c3ccc(OC(F)(F)F)cc3)CC2)C1 [Example 103] ... 0.0
3) CN(CCCNC(=O)C1=NOC2(CCN(S(=O)(=O)c3ccc(Cl)s3)CC2)C1)c1ccccc1 [Example 89] ... 1.0
4) O=C(NCc1ccccc1)C1=NOC2(CCN(C(=O)c3cccc(SC(F)F)c3)CC2)C1 [Example 180] ... 0.0
5) O=C(NCc1ccccc1F)C1=NOC2(CCN(S(=O)(=O)c3ccc(F)cc3)CC2)C1 [Example 207] ... 0.0

# input Hello, I need to know if O=C(NCc1ccccc1)C1=NOC2(CCN(C(=O)COc3cccc(Cl)c3)CC2)C1 [Example 166] has measured BTX bond, 10 μM, % inhibition not below 60%. Thanks!
# output 0.0

# input Can CCN(CCNC(=O)C1=NOC2(CCN(S(=O)(=O)N(C)C)CC2)C1)c1cccc(C)c1 [Example 216] be said to have BTX bond, 10 μM, % inhibition at or above 60%?
# output 1.0

###

List of BTX bond, 10 μM, % inhibition values.
- Test system: batrachotoxin (BTX) binding site (binding site 2) of the sodium channel
- Method: Bond test on the sodium channel, binding site 2 (BTX bond), [3H]-batrachotoxinin A20 α-benzoate displacement
- Measurement Setup: rat cerebrocortex synaptosomes, 10 µM
Reply with just the number (in %).

Worked examples, 3 molecules total:
1. Cc1ccc(S(=O)(=O)N2CCC3(CC2)CC(C(=O)NC2CCCC2OCc2ccccc2)=NO3)cc1 (stereo not shown) [Example 73] ... 75
2. COc1ccc(S(=O)(=O)N2CCC3(CC2)CC(C(=O)NC2CCCC2OCc2ccccc2)=NO3)cc1 (stereo not shown) [Example 169] ... 48
3. COc1ccc(S(=O)(=O)N2CCC3(CC2)CC(C(=O)NC2CCCC2OCc2ccccc2)=NO3)cc1 (stereo not shown) [Example 121] ... 42

# ---- query molecule ----
# input Any idea what its BTX bond, 10 μM, % inhibition is? The molecule is Cc1ccc(S(=O)(=O)N2CCC3(CC2)CC(C(=O)NC2CCCC2OCc2ccccc2)=NO3)cc1 (stereo not shown) [Example 67]
# output 80

###

Catalogue of BTX bond, 10 μM, % inhibition values
- Test system: batrachotoxin (BTX) binding site (binding site 2) of the sodium channel
- Method: Bond test on the sodium channel, binding site 2 (BTX bond), [3H]-batrachotoxinin A20 α-benzoate displacement
- Measurement Setup: rat cerebrocortex synaptosomes
A number alone suffices; assume %.

1. O=C(NC1CCCC1OCc1ccccc1)C1=NOC2(CCN(S(=O)(=O)c3cccc(C(F)(F)F)c3)CC2)C1 (stereo not shown) [Example 201] ... 61
2. CN(Cc1cccnc1)C(=O)C1=NOC2(CCN(S(=O)(=O)c3cc(Cl)ccc3Cl)CC2)C1 [Example 92] ... 65
3. CCOC(=O)C1CCCCN1C(=O)C1=NOC2(CCN(C(=O)c3cc(C(C)(C)C)oc3C)CC2)C1 (stereo not shown) [Example 179] ... 55
4. CC(NC(=O)C1=NOC2(CCN(S(=O)(=O)c3cccs3)CC2)C1)c1cccc2c1OCCO2 (stereo not shown) [Example 84] ... 58
5. O=C(C1=NOC2(CCN(S(=O)(=O)c3cccc(C(F)(F)F)c3)CC2)C1)N1CCN(Cc2ccc3ccccc3c2)CC1 [Example 35] ... 50

# input Which BTX bond, 10 μM, % inhibition value belongs to O=C(NCC1CC1)C1=NOC2(CCN(C(=O)c3ccc(SC(F)(F)F)cc3)CC2)C1 [Example 108] ?
# output 43

# input Find the recorded BTX bond, 10 μM, % inhibition belonging to O=C(NC1CCN(Cc2ccc3ccccc3c2)C1)C1=NOC2(CCN(S(=O)(=O)c3ccc(Cl)s3)CC2)C1 (stereo not shown) [Example 50] and report it.
# output 87
